Biological target: Mu-type opioid receptor (Homo sapiens)
Sequence (P35372 whole entry): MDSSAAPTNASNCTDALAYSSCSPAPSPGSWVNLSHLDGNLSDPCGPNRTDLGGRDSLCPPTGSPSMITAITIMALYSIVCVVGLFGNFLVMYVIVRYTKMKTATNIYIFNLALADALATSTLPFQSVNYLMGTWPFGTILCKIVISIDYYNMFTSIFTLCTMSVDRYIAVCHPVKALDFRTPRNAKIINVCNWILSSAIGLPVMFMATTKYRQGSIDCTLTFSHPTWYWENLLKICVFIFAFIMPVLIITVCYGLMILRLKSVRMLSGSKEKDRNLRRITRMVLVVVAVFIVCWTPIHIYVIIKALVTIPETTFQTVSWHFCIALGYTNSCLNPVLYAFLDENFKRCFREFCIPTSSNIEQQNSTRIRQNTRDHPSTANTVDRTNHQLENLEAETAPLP

compound: OCCCCCCCCCCC(O)c1cc2c(cc1O)[C@@]13CCCC[C@H]1[C@@H](C2)N(CC1CCC1)CC3 (mixture of isomers)
Ki (nM): 36
//
compound: Oc1cc2c(cc1CNCCCCCCCCNCc1cc3c(cc1O)[C@@]14CCCC[C@H]1[C@@H](C3)N(CC1CCC1)CC4)C[C@@H]1[C@@H]3CCCC[C@]23CCN1CC1CCC1
Ki (nM): 24
//
compound: CCN(CCCCN(CC)Cc1cc2c(cc1O)[C@@]13CCCC[C@H]1[C@@H](C2)N(CC1CCC1)CC3)Cc1cc2c(cc1O)[C@@]13CCCC[C@H]1[C@@H](C2)N(CC1CCC1)CC3
Ki (nM): 160
//
compound: O=C(Nc1ccc(I)cc1)Nc1ccc2c(c1)[C@@]13CCCC[C@H]1[C@@H](C2)N(CC1CCC1)CC3
Ki (nM): 24
//
compound: OCc1cc2c(cc1O)[C@@]13CCCC[C@H]1[C@@H](C2)N(CC1CCC1)CC3
Ki (nM): 360
//
compound: Oc1cc2c(cc1C(O)CCCCC(O)c1cc3c(cc1O)[C@@]14CCCC[C@H]1[C@@H](C3)N(CC1CCC1)CC4)C[C@@H]1[C@@H]3CCCC[C@]23CCN1CC1CCC1 (mixture of isomers)
Ki (nM): 74

---

Species on record: Homo sapiens
Assay: Selectivity ratio of Ki for human kappa opioid receptor to Ki for human mu opioid receptor
Hi, to clarify the labels: true covers Ratio Ki from 0.5 upward, false covers anything below 0.5.

compound: OCCCCCCCCCCC(O)c1cc2c(cc1O)[C@@]13CCCC[C@H]1[C@@H](C2)N(CC1CCC1)CC3 (mixture of isomers)
cat: true
--
compound: Oc1cc2c(cc1CNCCCCCCCCNCc1cc3c(cc1O)[C@@]14CCCC[C@H]1[C@@H](C3)N(CC1CCC1)CC4)C[C@@H]1[C@@H]3CCCC[C@]23CCN1CC1CCC1
cat: true
--
compound: O/N=C\c1cc2c(cc1O)[C@@]13CCCC[C@H]1[C@@H](C2)N(CC1CCC1)CC3
cat: false
--
compound: CCN(CCCCN(CC)Cc1cc2c(cc1O)[C@@]13CCCC[C@H]1[C@@H](C2)N(CC1CCC1)CC3)Cc1cc2c(cc1O)[C@@]13CCCC[C@H]1[C@@H](C2)N(CC1CCC1)CC3
cat: false
--
compound: c1ccc(CNc2ccc3c(c2)[C@@]24CCCC[C@H]2[C@@H](C3)N(CC2CC2)CC4)cc1
cat: true
--
compound: CN1CC[C@]23CCCC[C@H]2[C@H]1Cc1ccc(NC(=O)Nc2ccc(I)cc2)cc13
cat: true
--
compound: Ic1ccc(CN(Cc2ccc(I)cc2)c2ccc3c(c2)[C@@]24CCCC[C@H]2[C@@H](C3)N(CC2CCC2)CC4)cc1
cat: true
--
compound: CN1CC[C@]23CCCC[C@H]2[C@H]1Cc1ccc(NC(=O)Nc2ccccc2)cc13
cat: true
--
compound: Oc1cc2c(cc1C(O)CCCCC(O)c1cc3c(cc1O)[C@@]14CCCC[C@H]1[C@@H](C3)N(CC1CCC1)CC4)C[C@@H]1[C@@H]3CCCC[C@]23CCN1CC1CCC1 (mixture of isomers)
cat: true
--
compound: COc1ccc(CNc2ccc3c(c2)[C@@]24CCCC[C@H]2[C@@H](C3)N(CC2CC2)CC4)cc1
cat: true
--
compound: CN1CC[C@]23CCCC[C@H]2[C@H]1Cc1ccc(OC(=O)Nc2ccc(I)cc2)cc13
cat: true

---

Species: Homo sapiens
Test: Selectivity ratio of Ki for human kappa opioid receptor to Ki for human mu opioid receptor

molecule: CN1CC[C@]23CCCC[C@H]2[C@H]1Cc1cc(CNCc2ccccc2)c(O)cc13
Ratio Ki: 2
//
molecule: CCC(O)c1cc2c(cc1O)[C@@]13CCCC[C@H]1[C@@H](C2)N(CC1CCC1)CC3 (mixture of isomers)
Ratio Ki: 0.3
//
molecule: Oc1cc2c(cc1CNCCCCNCc1cc3c(cc1O)[C@@]14CCCC[C@H]1[C@@H](C3)N(CC1CCC1)CC4)C[C@@H]1[C@@H]3CCCC[C@]23CCN1CC1CCC1
Ratio Ki: 0.7
//
molecule: NCc1cc2c(cc1O)[C@@]13CCCC[C@H]1[C@@H](C2)N(CC1CCC1)CC3
Ratio Ki: 0.5
//
molecule: c1ccc(Nc2ccc3c(c2)[C@@]24CCCC[C@H]2[C@@H](C3)N(CC2CCC2)CC4)cc1
Ratio Ki: 1
//
molecule: COc1ccc(Nc2ccc3c(c2)[C@@]24CCCC[C@H]2[C@@H](C3)N(CC2CCC2)CC4)cc1
Ratio Ki: 1
//
molecule: Oc1cc2c(cc1C(O)CCCCCCCCCCC(O)c1cc3c(cc1O)[C@@]14CCCC[C@H]1[C@@H](C3)N(CC1CCC1)CC4)C[C@@H]1[C@@H]3CCCC[C@]23CCN1CC1CCC1 (mixture of isomers)
Ratio Ki: 1

---

Molecular target: Kappa-type opioid receptor (Homo sapiens, UniProt P41145)
Sequence (P41145 whole entry): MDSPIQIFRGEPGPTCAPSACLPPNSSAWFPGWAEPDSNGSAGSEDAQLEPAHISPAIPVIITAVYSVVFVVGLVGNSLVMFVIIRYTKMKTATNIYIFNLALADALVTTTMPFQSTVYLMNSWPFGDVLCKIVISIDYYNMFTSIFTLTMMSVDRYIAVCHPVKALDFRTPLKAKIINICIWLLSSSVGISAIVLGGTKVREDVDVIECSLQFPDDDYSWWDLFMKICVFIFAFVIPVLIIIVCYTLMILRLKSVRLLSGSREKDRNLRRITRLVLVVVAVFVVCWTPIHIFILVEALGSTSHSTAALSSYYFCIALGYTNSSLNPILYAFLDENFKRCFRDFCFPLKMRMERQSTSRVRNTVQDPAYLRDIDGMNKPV

compound: O=C(Nc1ccc(I)cc1)Nc1ccc2c(c1)[C@@]13CCCC[C@H]1[C@@H](C2)N(CC1CC1)CC3
Ki / nM: 12
--
compound: Oc1cc2c(cc1CNCCCCNCc1cc3c(cc1O)[C@@]14CCCC[C@H]1[C@@H](C3)N(CC1CCC1)CC4)C[C@@H]1[C@@H]3CCCC[C@]23CCN1CC1CCC1
Ki / nM: 4.9
--
compound: CCN(CCCCCCN(CC)Cc1cc2c(cc1O)[C@@]13CCCC[C@H]1[C@@H](C2)N(CC1CCC1)CC3)Cc1cc2c(cc1O)[C@@]13CCCC[C@H]1[C@@H](C2)N(CC1CCC1)CC3
Ki / nM: 54
--
compound: CN1CC[C@]23CCCC[C@H]2[C@H]1Cc1ccc(NC(=O)Nc2ccc(I)cc2)cc13
Ki / nM: 280
--
compound: O=C(CCCCC(=O)NCc1cc2c(cc1O)[C@@]13CCCC[C@H]1[C@@H](C2)N(CC1CCC1)CC3)NCc1cc2c(cc1O)[C@@]13CCCC[C@H]1[C@@H](C2)N(CC1CCC1)CC3
Ki / nM: 30
--
compound: CCCNCc1cc2c(cc1O)[C@@]13CCCC[C@H]1[C@@H](C2)N(CC1CCC1)CC3
Ki / nM: 350
--
compound: Oc1cc2c(cc1C(O)CCCCC(O)c1cc3c(cc1O)[C@@]14CCCC[C@H]1[C@@H](C3)N(CC1CCC1)CC4)C[C@@H]1[C@@H]3CCCC[C@]23CCN1CC1CCC1 (mixture of isomers)
Ki / nM: 67
--
compound: CN1CC[C@]23CCCC[C@H]2[C@H]1Cc1ccc(NC(=O)Nc2ccccc2)cc13
Ki / nM: 340
--
compound: c1ccc(Nc2ccc3c(c2)[C@@]24CCCC[C@H]2[C@@H](C3)N(CC2CC2)CC4)cc1
Ki / nM: 0.047
--
compound: Oc1cc2c(cc1CNCCCCCCCCNCc1cc3c(cc1O)[C@@]14CCCC[C@H]1[C@@H](C3)N(CC1CCC1)CC4)C[C@@H]1[C@@H]3CCCC[C@]23CCN1CC1CCC1
Ki / nM: 40
--
compound: OCCCCCCCCCCC(O)c1cc2c(cc1O)[C@@]13CCCC[C@H]1[C@@H](C2)N(CC1CCC1)CC3 (mixture of isomers)
Ki / nM: 26
--
compound: O=C(Nc1ccc(I)cc1)Oc1ccc2c(c1)[C@@]13CCCC[C@H]1[C@@H](C2)N(CC1CC1)CC3
Ki / nM: 0.6
--
compound: O=C(Nc1ccc(I)cc1)Nc1ccc2c(c1)[C@@]13CCCC[C@H]1[C@@H](C2)N(CC1CCC1)CC3
Ki / nM: 28
--
compound: CN1CC[C@]23CCCC[C@H]2[C@H]1Cc1ccc(OC(=O)Nc2ccc(I)cc2)cc13
Ki / nM: 5.2
--
compound: CCC(O)c1cc2c(cc1O)[C@@]13CCCC[C@H]1[C@@H](C2)N(CC1CCC1)CC3 (mixture of isomers)
Ki / nM: 72
--
compound: CN1CC[C@]23CCCC[C@H]2[C@H]1Cc1cc(CNCc2ccccc2)c(O)cc13
Ki / nM: 380
--
compound: c1ccc(CNc2ccc3c(c2)[C@@]24CCCC[C@H]2[C@@H](C3)N(CC2CCC2)CC4)cc1
Ki / nM: 2.8
--
compound: OCc1cc2c(cc1O)[C@@]13CCCC[C@H]1[C@@H](C2)N(CC1CCC1)CC3
Ki / nM: 86
--
compound: O=C(Nc1ccccc1)Nc1ccc2c(c1)[C@@]13CCCC[C@H]1[C@@H](C2)N(CC1CC1)CC3
Ki / nM: 1.6
--
compound: O=C(Nc1ccc(I)cc1)Oc1ccc2c(c1)[C@@]13CCCC[C@H]1[C@@H](C2)N(CC1CCC1)CC3
Ki / nM: 0.99
--
compound: COc1ccc(Nc2ccc3c(c2)[C@@]24CCCC[C@H]2[C@@H](C3)N(CC2CCC2)CC4)cc1
Ki / nM: 0.59
--
compound: Ic1ccc(CNc2ccc3c(c2)[C@@]24CCCC[C@H]2[C@@H](C3)N(CC2CCC2)CC4)cc1
Ki / nM: 5.8
--
compound: COc1ccc(Nc2ccc3c(c2)[C@@]24CCCC[C@H]2[C@@H](C3)N(CC2CC2)CC4)cc1
Ki / nM: 0.03
--
compound: COc1ccc(CNc2ccc3c(c2)[C@@]24CCCC[C@H]2[C@@H](C3)N(CC2CC2)CC4)cc1
Ki / nM: 0.51
--
compound: Oc1cc2c(cc1C(O)CCCCCCCCCCC(O)c1cc3c(cc1O)[C@@]14CCCC[C@H]1[C@@H](C3)N(CC1CCC1)CC4)C[C@@H]1[C@@H]3CCCC[C@]23CCN1CC1CCC1 (mixture of isomers)
Ki / nM: 31
--
compound: CCCCC(O)c1cc2c(cc1O)[C@@]13CCCC[C@H]1[C@@H](C2)N(CC1CCC1)CC3 (mixture of isomers)
Ki / nM: 13
--
compound: NCc1cc2c(cc1O)[C@@]13CCCC[C@H]1[C@@H](C2)N(CC1CCC1)CC3
Ki / nM: 140
--
compound: c1ccc(Nc2ccc3c(c2)[C@@]24CCCC[C@H]2[C@@H](C3)N(CC2CCC2)CC4)cc1
Ki / nM: 1.5
--
compound: CN1CC[C@]23CCCC[C@H]2[C@H]1Cc1cc2c(cc13)OCN(Cc1ccccc1)C2
Ki / nM: 310
